Target: UniProt P24666
Sequence (P24666 whole entry): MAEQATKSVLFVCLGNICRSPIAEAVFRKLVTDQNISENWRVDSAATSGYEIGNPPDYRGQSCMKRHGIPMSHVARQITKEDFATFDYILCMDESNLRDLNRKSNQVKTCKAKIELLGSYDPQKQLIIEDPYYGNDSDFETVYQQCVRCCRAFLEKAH
Assay type: functional
Settings: read-out: IC50_Mean
Activity calls are given as the source filed them.
// allowed return values: Yes = active, No = inactive

CCc1nc2sc3ccccc3c(=O)c2c(=O)n1Cc1ccco1	No
Fc1ccccc1-c1nc(NCCCN2CCOCC2)c2ccccc2n1	Yes
Cc1cc(N2CCC(C)CC2)nc2cccc(O)c12	Yes

Now for another entry.
Task: What did this assay record as the result for "CN(C)C=O.Cc1cc(-c2ccco2)c(C#N)c2nc3ccccc3n12" ?
Output: No

###

Readings of IC50 for the listed molecules
Target: Calpain-2 catalytic subunit (Sus scrofa)
Sequence (P43367 whole entry): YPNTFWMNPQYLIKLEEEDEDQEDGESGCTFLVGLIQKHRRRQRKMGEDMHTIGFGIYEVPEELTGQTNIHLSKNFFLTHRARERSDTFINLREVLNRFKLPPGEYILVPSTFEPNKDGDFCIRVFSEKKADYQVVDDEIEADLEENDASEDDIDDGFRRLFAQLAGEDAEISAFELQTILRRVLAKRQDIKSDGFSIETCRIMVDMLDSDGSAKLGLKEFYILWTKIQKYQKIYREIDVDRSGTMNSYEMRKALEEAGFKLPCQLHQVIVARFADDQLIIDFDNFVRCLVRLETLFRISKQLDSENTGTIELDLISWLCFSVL
Assay: pig calpain II inhibitor potency, dose response, biochemical, fluorogenic peptide substrate (AID 1420)
Assay type: functional

Known results for molecules:
O=C(Nc1cccnc1)c1cc2cc(Br)ccc2oc1=O	17.6 µM (not active)
CC1CCC2C(=O)N(c3ccc(Cc4ccncc4)cc3)C(=O)C2C1 (stereo not given)	13.3 µM (not active)
CC(C)Oc1ccc(CCc2nnc(S)n2Cc2ccccc2)cc1	4.67 µM (not active)

Task: Please give the measured IC50 for this molecule: CC(C)(C)C1CCc2onc(C(=O)NCc3ccc(F)cc3)c2C1 (stereo not given)
Output: > 50 µM (not active)

Task: Please give the measured IC50 for this molecule: Cc1ccc(/N=C2\C(Cl)=C(O)OC2OC(=O)c2ccccc2C)cc1 (stereo not given)
Output: 12.6 µM (not active)

###

Assay: HepG2 cell cytotoxicity, dose response, cytotoxicity control for Shn3 inhibitor project, CellTiter-Glo, cherry-picked (AID 624134)
Assay type: functional, cell-based
Calls of active or inactive are those of the source.
// allowed return values: active, inactive

Some entries whose results are on file:
Oc1ccccc1C(Nc1nccs1)c1ccc2cccnc2c1O (configuration not stated)	active
O=C(c1cccc(S(=O)(=O)N2CCN(c3ccccc3)CC2)c1)N1CCCC(C(F)(F)F)C1 (configuration not stated)	active
C=C1C(=O)O[C@H]2[C@H]1[C@H](OC(=O)CC(=O)O[C@@H]1C[C@@H](C)[C@@H]3C=CC(=O)[C@@]3(C)[C@H]3OC(=O)C(=C)[C@H]13)C[C@@H](C)[C@H]1C=CC(=O)[C@]12C	inactive
CC(=O)c1cccc(NS(=O)(=O)c2ccc(N/C=C\C(=O)c3ccc(C)cc3)cc2)c1	inactive
Cc1c(C(C)C)c(=O)n(-c2ccc(S(=O)(=O)NC3CCCCC3)cc2)n1C	active
COc1cc(N2C(=O)C=CC2=O)ccc1N1C(=O)C=CC1=O	active

Task: What did this assay record as the result for CC1CCC2C(=O)N(c3ccc(Cc4ccncc4)cc3)C(=O)C2C1 (configuration not stated) ?
Output: active

###

Target: UniProt P41145
Sequence (P41145 whole entry): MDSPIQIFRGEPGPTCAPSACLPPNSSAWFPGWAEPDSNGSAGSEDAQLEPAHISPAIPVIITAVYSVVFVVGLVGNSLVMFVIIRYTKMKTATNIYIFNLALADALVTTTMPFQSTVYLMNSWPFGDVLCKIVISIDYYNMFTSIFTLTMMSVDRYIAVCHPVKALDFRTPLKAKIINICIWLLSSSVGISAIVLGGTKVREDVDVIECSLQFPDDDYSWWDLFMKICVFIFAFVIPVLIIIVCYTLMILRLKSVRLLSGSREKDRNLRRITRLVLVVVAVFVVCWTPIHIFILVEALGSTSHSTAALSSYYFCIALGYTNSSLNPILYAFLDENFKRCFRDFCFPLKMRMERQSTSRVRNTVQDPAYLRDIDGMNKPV
Assay type: functional
test_readout: IC50
The reply should consist of the numeric value with the unit placed after it.

Task: Please give the measured IC50 for this compound: "CCC(=O)OCCNc1cc(Sc2nccn2C)c2nonc2c1[N+](=O)[O-]"
Output: 22.7 µM

###

Readings of IC50 for the listed molecules
Molecular target: G-protein coupled receptor 55 (Homo sapiens)
Sequence (Q9Y2T6 whole entry): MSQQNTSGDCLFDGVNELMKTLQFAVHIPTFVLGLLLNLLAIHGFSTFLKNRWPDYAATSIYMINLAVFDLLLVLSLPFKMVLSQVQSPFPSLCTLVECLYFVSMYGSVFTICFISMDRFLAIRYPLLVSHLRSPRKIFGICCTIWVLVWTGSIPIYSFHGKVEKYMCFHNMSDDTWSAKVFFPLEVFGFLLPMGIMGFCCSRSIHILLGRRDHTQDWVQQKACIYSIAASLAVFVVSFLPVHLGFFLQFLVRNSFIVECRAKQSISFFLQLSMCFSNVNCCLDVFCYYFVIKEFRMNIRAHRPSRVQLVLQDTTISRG
Assay: GPR55 antagonists blocking LPI-driven arrestin recruitment, primary screen, imaging, U2OS, beta-arrestin-GFP, LPI agonist (AID 2013);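 also: antagonist potency measured as reduced agonist-driven arrestin aggregation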
Type: functional
Calls of active or inactive are those of the source.

Task: Please give the measured IC50 for this molecule: "COC(=O)C1=C(C)N(Cc2ccccc2)C(NCCc2cccnc2)=N[C@H]1c1ccccc1"
Output: 1.08 µM (active)

Task: Please give the measured IC50 for this molecule: "CC(C)C[C@H](NC(=O)c1[nH]cnc1C(=O)NCc1ccc(CNC(=O)OC(C)(C)C)cc1)C(=O)OCc1ccccc1"
Output: 2.3 µM (active)

Task: Please give the measured IC50 for this molecule: "C=C1C(=O)O[C@@H]2C[C@@H](C)[C@@H]3C=CC(=O)[C@@]3(C)[C@@H](O)[C@H]12"
Output: 2.64 µM (active)

Task: Please give the measured IC50 for this molecule: "Cc1cc(OCC(=O)Nc2ccc(S(=O)(=O)NC3=NCCCCC3)cc2)c(C(C)C)cc1Cl"
Output: 1.08 µM (active)

Task: Please give the measured IC50 for this molecule: "CN(C)c1ccnc(N(Cc2ccccc2)Cc2ccccc2)c1C#N"
Output: 0.509 µM (active)

###

Experiment: cytotoxicity toward NIH3T3 fibroblasts, dose response, counter-screen, cell-based, ATP luminescence, mouse fibroblasts (AID 2010);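 also: cells exposed to compound for about 90 hours before reading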
Format: functional
Calls of active or inactive are those of the source.
test_readout: EC50

Known results for molecules:
Cc1cc[n+](C2=C([N-]S(=O)(=O)c3cccs3)C(=O)c3ccccc3C2=O)cc1C	> 30 µM (not active)
Cc1ccccc1Nc1nc(-c2cccnc2)nc2ccccc12	> 60 µM (inconclusive)
CCOC(=O)c1c(NC(=O)Cn2cnc([N+](=O)[O-])n2)sc2c1CCC(C)C2 (stereo not drawn)	> 60 µM (not active)
Cc1cc(C(=O)N/N=C/c2ccc([N+](=O)[O-])s2)c2ccccc2n1	> 30 µM (not active)
Oc1ccccc1C(Nc1nccs1)c1ccc2cccnc2c1O (stereo not drawn)	9.11 µM (active)
O=c1c2ccccc2[nH]c(=S)n1CCCN1CCN(c2ccccc2)CC1	> 60 µM (not active)
O=[N+]([O-])c1ccc2c(OCc3nnc(-c4ccccc4Br)o3)ncnc2c1	10.4 µM (active)

# ---- query molecule ----
Task: Please give the measured EC50 for this molecule: "CCOC(=O)Nc1ccc2c(c1)N(C(=O)CCN(C)C)c1ccccc1S2"
Output: > 60 µM (not active)

###

Target: DNA repair protein RAD52 homolog (Homo sapiens, UniProt P43351)
Sequence (P43351 whole entry): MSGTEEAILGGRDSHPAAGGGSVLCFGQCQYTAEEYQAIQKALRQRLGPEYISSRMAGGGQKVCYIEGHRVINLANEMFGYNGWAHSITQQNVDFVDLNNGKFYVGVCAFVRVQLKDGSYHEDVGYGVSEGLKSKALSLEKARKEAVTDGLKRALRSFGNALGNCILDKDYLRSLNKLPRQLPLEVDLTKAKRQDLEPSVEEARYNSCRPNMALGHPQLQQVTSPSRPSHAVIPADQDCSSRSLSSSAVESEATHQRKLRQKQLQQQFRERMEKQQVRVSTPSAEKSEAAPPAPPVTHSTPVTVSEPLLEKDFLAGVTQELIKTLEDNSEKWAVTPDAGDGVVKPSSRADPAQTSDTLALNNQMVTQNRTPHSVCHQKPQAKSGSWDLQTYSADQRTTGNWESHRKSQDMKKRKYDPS
Assay type: functional, biochemical
Active and inactive are the calls of the source.
Readings of AC50 for the listed compounds

Task: Please give the measured AC50 for this compound: "Oc1cccc(Nc2c3ccccc3nc3ccccc23)c1"
Output: 3.09 µM (active)

Task: Please give the measured AC50 for this compound: "COc1ncccc1-c1cc2nc(NCCCN(C)C)n(C)c(=O)c2s1"
Output: 4.91 µM (active)

Task: Please give the measured AC50 for this compound: OC(CN1CCCCC1)Cn1c2ccccc2c2cc(Br)ccc21 (stereo not given)
Output: 19 µM (active)

Task: Please give the measured AC50 for this compound: C[N+]1(C)CCOC(O)(c2ccc(-c3ccc(C4(O)C[N+](C)(C)CCO4)cc3)cc2)C1 (stereo not given)
Output: 7.78 µM (active)

Task: Please give the measured AC50 for this compound: "Cc1cc(C)c2sc(N(CCCN(C)C)C(=O)CN3C(=O)c4ccccc4C3=O)nc2c1"
Output: 9.02 µM (active)

###

Readings of AC50 for the listed compounds
Biological target: UniProt Q63470
Type: biochemical, Homo sapiens
Activity calls are given as the source filed them.

Known results for compounds:
C=CS(=O)(=O)c1c2cc(OC)ccc2nc2ccc(OC)cc12	0.682 µM (active)
Cc1cc(N2CCC(C)CC2)nc2cccc(O)c12	14.3 µM (active)
O=C1NC(=O)/C(=C\c2ccc(Oc3cnccn3)cc2)S1	4.71 µM (active)

# ---- query compound ----
Task: Please give the measured AC50 for this compound: "Cc1ccc(-c2nn[nH]n2)cc1Cl"
Output: 9.99 µM (active)

###

Target: Phospholipase A2 (Homo sapiens, UniProt P04054);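 also: confirmatory dose-response counterscreen on phospholipase A2, testing hits that came from an ultra-high-throughput screen for ATG4B inhibitors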
Sequence (P04054 whole entry): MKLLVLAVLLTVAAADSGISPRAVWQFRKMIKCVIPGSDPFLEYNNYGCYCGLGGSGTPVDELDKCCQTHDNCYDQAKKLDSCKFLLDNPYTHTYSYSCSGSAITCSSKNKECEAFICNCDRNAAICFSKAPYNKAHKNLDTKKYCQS
Type: functional
The source made the active and inactive calls.
// allowed return values: true = active, false = inactive

Some entries whose results are on file:
COc1ccc(C(C)=O)cc1CSc1nc2ccccc2c(=O)n1-c1cccc(C)c1	true
FC(F)(F)Oc1ccc(NC(S)=NCc2ccccc2)cc1	true
O=C1C(=O)c2ccccc2-c2ccccc21 [9,10-PHENANTHRENEQUINONE]	false
CN(C)[C@@H]1C(O)=C(C(N)=O)C(=O)[C@@]2(O)C(O)=C3C(=O)c4c(O)ccc(Cl)c4[C@@](C)(O)C3C[C@@H]12 (stereo not given in full)	true

Task: What did this assay record as the result for "CCCC1=Nc2cc(C(=O)NCc3ccco3)ccc2Sc2ccccc21" ?
Output: true
